- assayed target: CRAC channel (Homo sapiens, UniProt Q96D31)
- Construct: endogenous in cells; host or cells: HEK293 (ECACC), untransfected
- Sequence (Q96D31 whole entry): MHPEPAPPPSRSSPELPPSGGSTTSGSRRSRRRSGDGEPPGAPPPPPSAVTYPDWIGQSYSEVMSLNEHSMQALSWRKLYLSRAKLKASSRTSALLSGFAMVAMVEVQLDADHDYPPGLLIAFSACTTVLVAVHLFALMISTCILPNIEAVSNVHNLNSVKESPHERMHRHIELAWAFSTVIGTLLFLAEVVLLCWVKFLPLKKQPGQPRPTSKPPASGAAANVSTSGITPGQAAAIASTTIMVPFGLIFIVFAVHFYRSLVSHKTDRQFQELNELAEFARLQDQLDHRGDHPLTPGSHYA
- assay info: HEK Calcium Influx Assay (FLIPR), inhibition of store-operated Ca2+ entry after thapsigargin store depletion
- Type: cell-based
- applied conditions: 10 μM compound, HEK293 cells, read-out: % inhib. [@ 10 μM] FLIPR
- Procedure: The effect of compounds of the invention on intracellular [Ca^2+] was tested in the HEK293 cell line (ECACC). HEK293 cells were cultured in DMEM/F12/Glutamax (Gibco) containing 10% FCS (Gibco), and maintained at 37° C., 5% CO2. […] Intracellular changes in [Ca^2+] were subsequently monitored with the FLIPR device (Molecular Devices). […] Increases in intracellular [Ca^2+] due to pre-activated SOC channels were monitored for 15 min until intracellular Ca^2+ levels had declined into a steady-state. […]
value kind: inhibition at 10 µM

Req: Consider the compound shown here: Cc1ccc(Cl)cc1N1CCc2[nH]c(-c3c(F)cccc3Cl)cc2C1=O What is its recorded inhibition at 10 µM?
Resp: 50 to 70%

Req: Now give it for Cc1sc(C2CC2)nc1N1CCc2[nH]c(-c3c(F)cccc3Cl)cc2C1=O too.
Resp: > 70%

Req: Now give it for CCOc1cc(C)c(N2CCc3[nH]c(-c4c(F)cccc4F)cc3C2)cn1 too.
Resp: > 70%

Req: Now give it for Cc1sc(-c2cncnc2)nc1N1CCc2[nH]c(-c3c(F)cccc3F)cc2C1 too.
Resp: > 70%

Req: Now give it for Cc1sc(-c2cccnc2)nc1N1CCc2[nH]c(-c3c(F)cccc3Cl)cc2C1 too.
Resp: > 70%

====

Consider the following molecules; for each one, report its inhibition at 10 µM.
- assayed target: CRAC channel (Homo sapiens, UniProt Q96D31)
- Construct: endogenous in cells; host or cells: HEK293 (ECACC), untransfected
- assay info: HEK Calcium Influx Assay (FLIPR), inhibition of store-operated Ca2+ entry after thapsigargin store depletion
- Type: cell-based
- applied conditions: 10 μM compound, HEK293 cells, read-out: % inhib. [@ 10 μM] FLIPR

Req: Consider the molecule shown here: CCn1nc(C2CC2)cc1N1CCc2[nH]c(-c3c(F)cccc3F)cc2C1 [Example 126] What is its recorded inhibition at 10 µM?
Resp: > 70%

Req: Now give it for Cc1cc(C(F)(F)F)ncc1N1CCc2[nH]c(C3CCCOC3)cc2C1 (stereo not drawn) [Example 134] too.
Resp: > 70%

Req: Now give it for Cc1ccc(-c2nccs2)cc1N1CCc2[nH]c(-c3c(F)cccc3F)cc2C1 [Example 8] too.
Resp: > 70%

Req: Now give it for Cc1sc(-c2cccnc2)nc1N1CCc2[nH]c(-c3c(F)cccc3F)c(I)c2C1 [Example 66] too.
Resp: < 50%

Req: Now give it for Cc1cc(N)ncc1N1CCc2[nH]c(-c3c(F)cccc3F)cc2C1 [Example 95] too.
Resp: > 70%

Req: Now give it for Cc1sc(-c2ccccn2)nc1N1CCc2[nH]c(-c3c(F)cccc3F)cc2C1=O [Example 5] too.
Resp: 50 to 70%

Req: Now give it for Cc1cc(C(F)(F)F)ncc1N1CCc2[nH]c(-c3c(F)cccc3F)cc2C1 [Example 73] too.
Resp: > 70%

Req: Now give it for Cn1nc(C2(C(F)(F)F)CC2)cc1N1CCc2[nH]c(-c3c(F)cccc3F)cc2C1 [Example 123] too.
Resp: > 70%

Req: Now give it for Cc1sc(-c2cccnc2)nc1N1CCc2[nH]c(-c3c(F)cccc3Cl)cc2C1=O [Example 42] too.
Resp: > 70%

Req: Now give it for COc1cnc(C(F)(F)F)nc1N1CCc2[nH]c(-c3c(F)cccc3F)cc2C1 [Example 84] too.
Resp: 50 to 70%

Req: Now give it for COc1cc(C)c(N2CCc3[nH]c(-c4c(F)cccc4F)cc3C2=O)cn1 [Example 39] too.
Resp: 50 to 70%

Req: Now give it for Cc1cc(S(C)(=O)=O)c(F)cc1N1CCc2[nH]c(-c3c(F)cccc3F)cc2C1 [Example 101] too.
Resp: > 70%
